- METHOD SUMMARY: refractive index (Na D-line) (dimensionless)
- COND: 298.15 K; 101.33 kPa; Liquid; Standard Abbe refractometry
± gives the expanded uncertainty stated by the source.
Recorded measurements of refractive index, one per entry

get_value(item= CCO [ethanol] , readout=refractive index) returns 1.36161 ± 0.00078

Per the records, this molecule ( CO [methanol] ) has refractive index equal to 1.3267 ± 0.00082

According to the records, this molecule CC(C)CC(C)(C)C [2,2,4-trimethylpentane] displays refractive index of 1.39267 ± 0.00078

Please turn your attention to the following entry.
// field: refractive index; key: C=COCCC [propyl vinyl ether] ; value = 1.39094 ± 0.00078

----------
- COND: 298.15 K; 101.33 kPa; Liquid
ATTRIBUTE MEASURED: mass density (kg/m3)
Give your result in kg/m3 as a bare value.

Solved cases (3 shown):
Value of mass density reported for the molecule CCO is 785.32

get_value(item= C=COCCC , readout=mass density) returns 762.98

Looking up CC(C)CC(C)(C)C , I found its mass density recorded as 688.18

Now let's try a different one.
The molecule listed as CO has a reported mass density of 786.54
